Assay: cell viability loss over short exposure – CellTiter-Glo, 3 h, dry powder, cytotoxicity control for SR-BI HDL uptake inhibitor project, dose response (AID 540246)
Conditions: ldlA[mSR-BI] CHO cells viability, CellTiter-Glo ATP, 3 h; at 35 µM (top of the series)
Property Name: activity change, negative = cytotoxicity (%)
Give bare numbers, in %.

{"columns": ["Molecule", "activity change, negative = cytotoxicity / %"],
 "data": [
  ["COc1ccc([C@H]2CC(=O)C=C(c3cccc4c3sc3ccccc34)C2)cc1OC", 3.09]
]}

Give me activity change, negative = cytotoxicity for each of these molecules, listed below.
1. C[C@H](CO)N1C[C@H](C)[C@H](CN(C)S(=O)(=O)c2ccc(F)cc2)Oc2ccc(NC(=O)Cc3cn(C)c4ccccc34)cc2C1=O
2. N#Cc1sc2nc(C3CC3)cc(-c3ccc(Cl)cc3)c2c1N
3. C[C@H]1CN([C@@H](C)CO)C(=O)c2cccc(NC(=O)Nc3ccccc3)c2O[C@@H]1CN(C)Cc1ccccc1
4. C[C@@H]1CN([C@H](C)CO)C(=O)c2cc(NC(=O)Cc3cn(C)c4ccccc34)ccc2O[C@H]1CN(C)S(=O)(=O)c1ccc(Cl)cc1
5. C[C@@H]1CN([C@H](C)CO)C(=O)c2cc(NC(=O)Cc3cn(C)c4ccccc34)ccc2O[C@H]1CN(C)S(C)(=O)=O

[-7.27, -2.17, 6.56, 1.29, 0.836]

Give me activity change, negative = cytotoxicity for each of these molecules, listed below.
1. CCc1cc2cc3c(cc2nc1SCC(=O)OC(C)C)OCO3
2. O=C(Nc1ccc(-c2nc3cc(NC(=O)c4ccc(NC(=O)c5cccc6ccccc56)cc4)ccc3[nH]2)cc1)c1ccc(NC(=O)c2cccc3ccccc23)cc1

0.059
-0.376

Give me activity change, negative = cytotoxicity for each of these molecules, listed below.
1. C[C@@H]1CN([C@H](C)CO)C(=O)c2cc(NC(=O)Cc3cn(C)c4ccccc34)ccc2O[C@H]1CN(C)S(=O)(=O)c1ccc(F)cc1
2. CC(C)OCCCNC(=O)c1ccc(C2SCC(=O)N2Cc2ccco2)cc1 (stereo unspecified)
3. C[C@H]1CN([C@@H](C)CO)C(=O)c2cc(NC(=O)Nc3ccccc3)ccc2O[C@@H]1CN(C)Cc1ccc(Cl)c(Cl)c1
4. Cc1cc(SC(C)C(=O)Nc2ncc(Cl)cc2Cl)nc2ccccc12 (stereo unspecified)
5. C[C@@H]1CN([C@H](C)CO)C(=O)Cc2cc(NC(=O)Cc3cn(C)c4ccccc34)ccc2O[C@H]1CN(C)S(=O)(=O)c1ccc(F)cc1
6. O=C(Nc1ccc(-c2nc3ccc(NC(=O)c4ccc(Cl)cc4)cc3[nH]2)cc1)c1ccc(Cl)cc1
7. CC(C)NC(=O)Nc1cccc2c1O[C@H](CN(C)Cc1ccc(Cl)c(Cl)c1)[C@@H](C)CN([C@@H](C)CO)C2=O

1: 3.35; 2: 0.099; 3: -3.65; 4: -7.81; 5: -1; 6: 5.01; 7: 3.16

Give me activity change, negative = cytotoxicity for each of these molecules, listed below.
1. C[C@@H]1CN([C@@H](C)CO)C(=O)c2cc(NC(=O)Cc3cn(C)c4ccccc34)ccc2O[C@H]1CN(C)S(=O)(=O)c1ccc(F)cc1
2. O=C(Nc1ccc(-c2nc3cc(NC(=O)c4ccccc4[N+](=O)[O-])ccc3o2)cc1)c1ccccc1[N+](=O)[O-]
3. CCc1sc(N2C(=O)C3C4CCC(C4=C(C)C)C3C2=O)nc1-c1ccccc1 (stereo unspecified)
4. C[C@H]1CN([C@@H](C)CO)C(=O)c2cccc(NC(=O)Nc3ccccc3)c2O[C@@H]1CN(C)S(C)(=O)=O
5. O=C(Nc1cc(Cl)ccc1Cl)c1cc(Br)ccc1NS(=O)(=O)c1ccc(Cl)c([N+](=O)[O-])c1
6. C[C@@H]1CN([C@H](C)CO)C(=O)c2cc(NC(=O)Cc3cn(C)c4ccccc34)ccc2O[C@@H]1CN(C)S(=O)(=O)c1ccc(F)cc1

[-10.2, 9.71, 3.35, -2.86, -7.81, 4.76]
